# Tgt: Mu-type opioid receptor (Homo sapiens)
# Sequence (P35372 whole entry): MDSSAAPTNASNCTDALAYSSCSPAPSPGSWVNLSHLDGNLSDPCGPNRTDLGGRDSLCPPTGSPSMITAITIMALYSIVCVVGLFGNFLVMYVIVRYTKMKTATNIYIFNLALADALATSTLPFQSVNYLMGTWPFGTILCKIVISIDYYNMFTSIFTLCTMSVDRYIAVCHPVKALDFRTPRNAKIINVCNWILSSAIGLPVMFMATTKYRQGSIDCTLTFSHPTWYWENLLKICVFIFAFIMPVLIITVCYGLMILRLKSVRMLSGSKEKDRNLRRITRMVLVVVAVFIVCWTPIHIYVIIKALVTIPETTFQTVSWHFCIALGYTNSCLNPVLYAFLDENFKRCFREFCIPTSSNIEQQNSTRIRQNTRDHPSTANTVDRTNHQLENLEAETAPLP
# Assay Explanation: Displacement of [3H]DAMGO from recombinant human mu-opioid receptor expressed in CHO cell membranes at 1 X 10^-6 M after 60 mins by liquid scintillation counting method relative to control
Reported Property: inhibition (%)

INSERT INTO results (molecule, value_reported) VALUES
  ('NC(=O)c1ccc(Oc2ccc(CN3CCCC3c3ccc(F)cc3)cc2)c2ccccc12 (stereo not given)', 0),
  ('Cc1cc(C)cc(C2CCCN2Cc2ccc(Oc3ccc(C(N)=O)cc3)c(F)c2)c1 (stereo not given)', 71),
  ('Cc1cc(C)cc(C2CCCN2Cc2ccc(Oc3ccc(C(N)=O)cc3F)c(F)c2)c1 (stereo not given)', 73.4),
  ('Cc1cccc(C2CCCN2Cc2ccc(Oc3ccc(C(N)=O)c4ccccc34)cc2)c1 (stereo not given)', 0),
  ('NC(=O)c1ccc(Oc2ccc(CN3CCCC3c3cccc(F)c3)cc2)c2ccccc12 (stereo not given)', 0),
  ('NC(=O)c1ccc(Oc2ccc(CN3CCCC3c3cccnc3)cc2)c2ccccc12 (stereo not given)', 11.3),
  ('Cc1ccccc1C1CCCN1Cc1ccc(Oc2ccc(C(N)=O)c3ccccc23)cc1 (stereo not given)', 0),
  ('Cc1cc(C)cc(C2CCCN2Cc2ccc(Oc3ccc(C(N)=O)cc3)c(Cl)c2)c1 (stereo not given)', 78.8),
  ('Cc1cc(C)cc(C2CCCN2Cc2ccc(Oc3ccc(C(N)=O)cc3F)c(Cl)c2)c1 (stereo not given)', 51.4),
  ('Cc1cc(C)cc(C2CCCN2Cc2ccc(Oc3ccc(C(N)=O)cc3F)cc2)c1 (racemic)', 56.1);

###

# Tgt: Kappa-type opioid receptor (Homo sapiens, UniProt P41145)
# Sequence (P41145 whole entry): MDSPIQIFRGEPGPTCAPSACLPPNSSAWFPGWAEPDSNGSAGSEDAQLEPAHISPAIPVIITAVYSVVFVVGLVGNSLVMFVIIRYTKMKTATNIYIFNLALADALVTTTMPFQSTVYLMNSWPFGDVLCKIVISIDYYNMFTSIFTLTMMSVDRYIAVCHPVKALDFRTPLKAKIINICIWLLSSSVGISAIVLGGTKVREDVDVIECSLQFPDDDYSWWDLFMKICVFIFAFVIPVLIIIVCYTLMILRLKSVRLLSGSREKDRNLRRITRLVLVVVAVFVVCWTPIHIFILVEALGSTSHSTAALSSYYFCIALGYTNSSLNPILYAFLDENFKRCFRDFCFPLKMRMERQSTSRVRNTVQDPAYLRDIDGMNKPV
# Assay Explanation: Displacement of [3H]U69593 from recombinant human kappa-opioid receptor expressed in CHO cell membranes at 1 X 10^-6 M after 60 mins by liquid scintillation counting method relative to control
Quick reference for inhibition among some molecules
Reported Property: inhibition (%)

INSERT INTO results (molecule, reported_property, unit, value_reported) VALUES
  ('NC(=O)c1ccc(Oc2ccc(CN3CCCC3c3cccc(F)c3)cc2)c2ccccc12 (centres undefined)', 'inhibition', '%', 27.7),
  ('COc1ccc(C2CCCN2Cc2ccc(Oc3ccc(C(N)=O)c4ccccc34)cc2)cc1 (centres undefined)', 'inhibition', '%', 46.5),
  ('NC(=O)c1ccc(Oc2ccc(CN3CCCC3c3cccnc3)cc2)c2ccccc12 (centres undefined)', 'inhibition', '%', 5.1),
  ('Cc1cc(C)cc(C2CCCN2Cc2ccc(Oc3ccc(C(N)=O)cc3)c(Cl)c2)c1 (centres undefined)', 'inhibition', '%', 99.3);

###

Quick reference for inhibition among some molecules
# Tgt: Delta-type opioid receptor (Homo sapiens, UniProt P41143)
# Sequence (P41143 whole entry): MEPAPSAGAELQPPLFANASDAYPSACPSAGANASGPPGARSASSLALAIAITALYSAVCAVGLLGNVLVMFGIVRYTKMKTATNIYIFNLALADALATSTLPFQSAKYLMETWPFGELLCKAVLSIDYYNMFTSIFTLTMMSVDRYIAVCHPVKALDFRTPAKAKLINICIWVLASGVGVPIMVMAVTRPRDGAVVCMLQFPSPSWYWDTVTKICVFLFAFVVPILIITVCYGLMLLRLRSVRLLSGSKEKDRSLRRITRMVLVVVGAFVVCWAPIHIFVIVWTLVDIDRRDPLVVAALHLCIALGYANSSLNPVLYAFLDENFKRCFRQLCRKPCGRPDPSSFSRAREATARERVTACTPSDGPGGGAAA
# Assay Explanation: Displacement of [3H]DPDPE from recombinant human delta-opioid receptor expressed in HEK293 cell membranes at 1 X 10^-5 M after 60 mins by liquid scintillation counting method relative to control
Reported Property: inhibition (%)

INSERT INTO measurements (molecule, value_reported) VALUES
  ('COc1ccc(C2CCCN2Cc2ccc(Oc3ccc(C(N)=O)c4ccccc34)cc2)cc1 (stereo not drawn)', 9),
  ('Cc1cc(C)cc(C2CCCN2Cc2ccc(Oc3ccc(C(N)=O)cc3)c(Cl)c2)c1 (stereo not drawn)', 87.5),
  ('NC(=O)c1ccc(Oc2ccc(CN3CCCC3c3cccc(Cl)c3)cc2)c2ccccc12 (stereo not drawn)', 0);
